Target: 3',5'-cyclic-AMP phosphodiesterase 4B (Homo sapiens)
Assay: qHTS Assay for Inhibitors of PDE-IV (AID 607)
Details: HEK293 ACTOne CNG channel cells, membrane potential fluorescence; series mostly up to 22.9 µM
Records with an inconclusive call do not appear. Activity calls are given as the source filed them. Calls follow the shape of the dose curve; as a rule, active = well fitted activation curve with a large enough effect in the main read-out, with a control signal flat (not every such curve was filed as active); inconclusive = small, poorly fitted or top-dose-only effect, or effect the other way, or a change in a side signal; inactive = flat fitted curve, though single readings scatter.
Entry note: the call must match one of Y for active, N for inactive

QUERY: Hi, do you know how CCNc1ncc2nc(-c3cccs3)c(=O)n(Cc3ccc(F)cc3)c2n1 came out in this test?
RESULT: N

QUERY: What was the test verdict on Cc1noc(C)c1-c1nccc(N2CCNCC2)n1 ?
RESULT: N

QUERY: # lookup: test call for O=S(=O)(c1ccccc1)N1CCC2(CC1)CN(Cc1nccs1)C2
RESULT: N

QUERY: Returns: the outcome recorded for O=C(c1csnn1)N1CCC2(CCCN(c3ccccn3)C2)CC1 in this assay.
RESULT: N

QUERY: What outcome does the record of this test show for N#Cc1ccc(CN2CCCC3(CCN(C(=O)c4csnn4)CC3)C2)cc1 ?
RESULT: N

QUERY: Check the results log: what was the call for CN1CCN(c2ncncc2-c2ccoc2)CC1 ?
RESULT: N

QUERY: Dear all, I need the recorded test outcome for COc1cccc(Cn2c(=O)c(CCc3ccccc3)nc3cncnc32)c1 , thank you.
RESULT: N

QUERY: Could you check what this test reported for FC(F)(F)c1ccccc1-c1cc(NCc2cccnc2)ncn1 ?
RESULT: N

QUERY: Which outcome was entered for the molecule CN(C)c1ncc2nc(-c3ccc(Cl)cc3)c(=O)n(-c3ccccc3)c2n1 in this test?
RESULT: Y

QUERY: Hi, sorry to bother you, what did the test record for c1csc(CNc2ncncc2-c2ccoc2)c1 ?
RESULT: N

QUERY: For COc1ccc2[nH]cc(CCNc3cc(-c4ccccc4C)ncn3)c2c1 , which call appears in the assay record?
RESULT: N

QUERY: Hey, what did the test say about O=C(c1cnccn1)N1CCC2(CCCN(Cc3ccccc3)C2)CC1 ?
RESULT: N

====

Molecular target: Cytochrome P450 3A4 (Homo sapiens) (UniProt P08684)
Sequence (P08684 whole entry, looked up): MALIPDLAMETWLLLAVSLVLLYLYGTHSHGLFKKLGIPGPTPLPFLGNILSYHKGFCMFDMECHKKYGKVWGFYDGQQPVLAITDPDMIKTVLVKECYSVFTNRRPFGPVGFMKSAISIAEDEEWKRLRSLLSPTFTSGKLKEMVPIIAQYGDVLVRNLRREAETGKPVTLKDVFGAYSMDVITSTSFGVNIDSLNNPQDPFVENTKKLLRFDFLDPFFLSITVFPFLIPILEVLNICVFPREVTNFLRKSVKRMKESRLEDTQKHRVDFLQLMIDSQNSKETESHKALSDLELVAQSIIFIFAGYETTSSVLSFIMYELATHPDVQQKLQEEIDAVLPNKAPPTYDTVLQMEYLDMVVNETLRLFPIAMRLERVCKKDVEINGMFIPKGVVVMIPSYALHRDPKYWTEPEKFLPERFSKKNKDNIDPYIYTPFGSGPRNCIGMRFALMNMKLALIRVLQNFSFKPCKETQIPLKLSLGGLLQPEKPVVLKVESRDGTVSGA
Assay: qHTS Assay for Inhibitors and Substrates of Cytochrome P450 3A4 (AID 884); also: nearly all actives have a fitted effect of over 50% in size; also: potency is read from the fitted curve at half-maximal effect
Details: recombinant CYP3A4, Luciferin-PPXE luminescence; series mostly up to 57.1 µM
Inconclusive results are not listed. The source made the active and inactive calls. Calls follow the shape of the dose curve; as a rule, active = well fitted inhibition curve with a large enough effect; inconclusive = small, poorly fitted or top-dose-only effect; inactive = no such curve, though single readings can be large or run the other way.
parameter: Potency

compound	Potency
COc1ccc2[nH]cc(CCNc3ccnc(-c4ccccc4Cl)n3)c2c1	2000 nM (active)
COc1ccc(CNc2ncncc2-c2c(C)noc2C)c(OC)c1	1260 nM (active)
O=c1ccc2ccc(O)cc2o1	inactive
COc1ccc(CNc2nc(-c3ccccc3CN(C)C)nc3ccccc23)c(OC)c1	7940 nM (active)
Cc1noc(C)c1-c1nccc(NC2CC2)n1	2510 nM (active)
COc1c(-c2ccc(O)c(O)c2)oc2cc(O)cc(O)c2c1=O	inactive
COc1ccc2[nH]cc(CCNc3ccnc(-c4ccc(N(C)C)cc4)n3)c2c1	5010 nM (active)
CN1CCN(c2ncc3nc(-c4ccc(Cl)cc4)c(=O)n(Cc4ccc(F)cc4)c3n2)CC1	inactive
c1ccc2c(N3CCOCC3)nc(-c3ccoc3)nc2c1	6310 nM (active)
FC(F)(F)c1ccccc1-c1cncnc1NCc1cccnc1	631 nM (active)

The compound c1ccc2c(Nc3ccncc3)nc(-c3ccoc3)nc2c1 , when measured on Cytochrome P450 3A4 (Homo sapiens) (UniProt P08684), yielded Potency of 1260 nM (active)

# Potency measured on Cytochrome P450 3A4 (Homo sapiens) (UniProt P08684) for item COc1cccc(-c2cc(NCc3ccc(OC)cc3OC)ncn2)c1 = 2510 nM (active)

Measured on Cytochrome P450 3A4 (Homo sapiens) (UniProt P08684), CS(=O)(=O)N1CCC2(CCCN(C(c3ccccc3)c3ccccc3)C2)CC1 has a documented Potency of 3980 nM (active)

So the reported Potency for CC(=O)Oc1cc(OC(C)=O)c2c(c1)OC(c1ccc(OC(C)=O)c(OC(C)=O)c1)C(OC(C)=O)C2 (stereo not drawn) , on Cytochrome P450 3A4 (Homo sapiens) (UniProt P08684), turned out to be 31600 nM (active)

The measured Potency that Cc1cc(OC(=O)c2c(C)cc(O)cc2O)cc(O)c1C(=O)O showed for Cytochrome P450 3A4 (Homo sapiens) (UniProt P08684) is 12600 nM (active)

// assay Cytochrome P450 3A4 (Homo sapiens) (UniProt P08684), entry CN(C)CC[C@@H](c1ccccc1)c1ccccn1 , Potency value = inactive

Potency for Cytochrome P450 3A4 (Homo sapiens) (UniProt P08684) with input c1ccc(CNc2ncnc3ccc(-c4ccc5c(c4)OCO5)cc23)cc1 equals 2000 nM (active)

Field Potency (system: Cytochrome P450 3A4 (Homo sapiens) (UniProt P08684)) for entry COc1ccc2c(c1)OC/C(=C/c1ccc(O)c(O)c1)C2=O = 31600 nM (active)

Observed Potency, Cytochrome P450 3A4 (Homo sapiens) (UniProt P08684), COCC(=O)N1CCC2(CC1)CN(Cc1nccs1)C2 : inactive

====

Kindly supply the reported activity change, negative = inhibition values for the records listed here.
Test: AP1 Signaling Pathway (AID 357);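 also: ME-180 reporter cells stimulated with EGF at its EC50 level; % is scaled to controls: 0 for no effect and ±100 for the full control effect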
Conditions: ME-180 (cervical carcinoma) AP-1-bla reporter, EGF-induced, beta-lactamase ratio, 5 h; at 7.69 µM (top of the series) unless noted
Records with an inconclusive call do not appear. Active and inactive are the calls of the source. Calls come from the whole dose curve; as a rule, active = well fitted curve in either direction with a large enough effect (not every such curve was filed as active); inconclusive = small, poorly fitted or top-dose-only effect, or another doubt; inactive = flat fitted curve, though single readings scatter.

Summary for this molecule, N#CCCn1c(=O)cnc2cnc(N3CCNCC3)nc21 : activity change, negative = inhibition is -10.6% (inactive)

// O=c1[nH]c(=O)n([C@@H]2C[C@H](O)[C@H](CO)O2)cc1I : activity change, negative = inhibition value = 9.17% [at 17.2 µM] (inactive)

Noted for CN(C)CC/C=C1\c2ccccc2CSc2ccccc21 : its activity change, negative = inhibition reads 28.4% [at 17.2 µM] (inactive)

Short answer for COc1ccc(Oc2ncc3ncc(=O)n(-c4ccc(OC)cc4)c3n2)cc1 : activity change, negative = inhibition was -24.9% (inactive)

Please fill in: activity change, negative = inhibition reported for COc1ccccc1CN1CCCC2(CCN(C(C)=O)CC2)C1 = 0.608% (inactive)

Lab note: CN(C)C(=O)c1ccc(-c2cncnc2-n2ccnc2)cc1 gave activity change, negative = inhibition of -3.64% (inactive)

====

Target: Cytochrome P450 1A2 (Homo sapiens)
Assay: qHTS for inhibitors of CYPIA2 against the NCATS DSHEA and TCM libraries (AID 1919976)
Conditions: recombinant CYP1A2 enzyme activity, luminescence; series mostly up to 37 µM
Inconclusive results are not listed. Calls of active or inactive are those of the source. Calls come from the whole dose curve; as a rule, active = well fitted inhibition curve with a large enough effect; inconclusive = small, poorly fitted or top-dose-only effect; inactive = no such curve, though single readings can be large or run the other way.
Entry note: the call must match one of y = active, n = inactive

QUERY: Could you please tell me the result logged for COc1ccc2ccc(=O)oc2c1 in this assay?
RESULT: y

QUERY: I would be grateful if you could indicate the recorded call for O=c1cc(-c2ccc(O)cc2)oc2cc(O[C@H]3OC(CO)C(O)C(O)C3O)cc(O)c12 (stereo not given in full) .
RESULT: n

QUERY: Assay result, entry NC(Cc1c[nH]c2ccccc12)C(=O)O (stereo not given) — outcome?
RESULT: y

QUERY: Fill in: this test's call for O=c1ccc2ccc(O)cc2o1 is ___
RESULT: n

QUERY: Dear all, I need the recorded test outcome for COC(=O)C1=CO[C@@H](C)[C@H]2CN3CCc4c([nH]c5ccccc45)[C@@H]3C[C@H]12 , thank you.
RESULT: y

====

Molecular target: Cytochrome P450 1A2 (Homo sapiens)
Experiment: p450-cyp1a2 (AID 410)
Details: recombinant CYP1A2, luciferin-ME demethylation, luminescence; series mostly up to 57 µM
Records with an inconclusive call do not appear. Calls of active or inactive are those of the source. Calls follow the shape of the full dose curve.
Choose the fitting class; nothing outside y = active, n = inactive is accepted.

QUERY: Which outcome was assigned to O=C(c1cnccn1)N1CCC2(CCCN(Cc3nccs3)C2)CC1 in this test?
RESULT: y

QUERY: Which outcome was entered for the compound COc1ccccc1CNc1ncnc2ccc(-c3ccccc3C#N)cc12 in this test?
RESULT: y

QUERY: Could you kindly confirm the outcome this assay logged for COc1ccccc1-c1cc(-n2ccnc2)ncn1 ?
RESULT: y

QUERY: So what was the verdict on O=c1c(CCc2ccccc2)nc2cnc(N3CCOCC3)nc2n1Cc1ccc(F)cc1 in this test?
RESULT: y

QUERY: For this compound, state the assay outcome: CN1CCN(c2ncc3nc(-c4cccs4)c(=O)n(Cc4cccs4)c3n2)CC1
RESULT: y

QUERY: Which outcome was entered for the compound NC(N)=NC[C@@H]1COC2(CCCCC2)O1 in this test?
RESULT: n

QUERY: Per the records of this test, what outcome belongs to COc1ccccc1-c1nc(NCCN2CCOCC2)c2ccccc2n1 ?
RESULT: y

QUERY: How was COc1ccc(CNc2ccnc(-c3cccnc3)n2)c(OC)c1 classified in this test?
RESULT: y

QUERY: Please state the recorded outcome for this compound: N#Cc1cccc(-c2cncnc2NCc2ccccc2)c1
RESULT: y

QUERY: For O=c1c(-c2cccc(Cl)c2)nc2cncnc2n1Cc1ccccc1Cl , what call appears in the results of this test?
RESULT: y

QUERY: // param item: CC(=O)N1CCC2(CC1)CCN(c1cccc(-c3ccccc3)c1)CC2 ; yields the recorded call
RESULT: y
